- ASSAY NAME: growth inhibition of DIPG glioma cells, dose response, cell-based, SU-DIPG-XVII, MIPE5.0, CellTiter-Glo, qHTS (AID 1347060);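 as to AC50: cells exposed to compound for 48 hours before viability readout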
- TEST CONTEXT: SU-DIPG-XVII viability, CellTiter-Glo ATP luminescence
Results filed as inconclusive are left out. Calls of active or inactive are those of the source. The limit is not given here; nearly all actives have AC50 up to about 26 µM.
Possible outcomes: active, inactive

{"columns": ["CHEMICAL SMILES", "CATEGORY LABEL"],
 "data": [
  ["NC(=O)[C@@H](CC1CC1)[C@@H](CCC(F)(F)F)C(=O)N[C@H]1N=C(c2ccccc2)c2cccc(F)c2NC1=O", "inactive"],
  ["C/C(=C\\c1csc(C)n1)[C@@H]1C[C@@H]2O[C@@H]2CCC[C@H](C)[C@H](O)[C@@H](C)C(=O)C(C)(C)[C@@H](O)CC(=O)O1", "active"],
  ["COc1cc(C(=O)N2CC[C@@H](O)[C@@H](N)C2)cc2nc(-c3cc4ccccc4n3CC3CC3)n(C)c12", "active"],
  ["C[C@]12CC[C@H](O)CC1=CC[C@@H]1[C@@H]2CC[C@]2(C)C(=O)CC[C@@H]12", "inactive"],
  ["O=c1[nH]c2ccc(Cl)cc2c(N[C@@H]2CN3CCC2CC3)c1-c1nc2ccccc2[nH]1", "active"],
  ["C/C=C(/C)C(=O)O[C@H]1C(C)=C2[C@H]([C@@H]1OC(=O)CCCCCCC)[C@@](C)(OC(C)=O)C[C@H](OC(=O)CCC)[C@@]1(O)[C@H]2OC(=O)[C@@]1(C)O", "active"],
  ["CSCC[C@@H](NC(=O)[C@@H](Cc1ccccc1)NC(=O)CNC(=O)CNC(=O)[C@@H](N)Cc1ccc(O)cc1)C(=O)O", "inactive"]
]}
